- Assay Comment: Measurement of the critical micellar concentration (CMC) by surface tension (tensiometer, water/SA-ambient air interface)
- Type: physicochemical
- Condition Label: permuted water, room temperature of 20° C.
Measured Parameter: CMC (g/L)
Numeric only. Scale: g/L

[in] Item CCCCCCCCCCCCCCCCCC[N+](C)(C)CCN(CCCS(=O)(=O)[O-])C(C)=O has what recorded CMC?
[out] 0.01

[in] Now consider CCCCCCCCCCCC[N+](C)(C)CCN(CCCS(=O)(=O)[O-])C(C)=O and answer again.
[out] 0.04

[in] Now consider CCCCCCCCCCCC[N+](C)(C)CCCN(CCCS(=O)(=O)[O-])C(C)=O and answer again.
[out] 0.15

[in] Now consider CCCCCCCCCCCCCCCCCC[N+](C)(C)CCCN(CCCCS(=O)(=O)[O-])C(C)=O and answer again.
[out] 0.0028
